target: human GluN1^FA,TL/GluN3A receptors (Homo sapiens); construct: Human GluN3A (NP_597702.2) and rat GluN3B (NP_579842.2) were synthesized and subcloned into SP6 plasmids; expressed in transfected cells; host or cells: Xenopus laevis oocytes, cRNA injection (GluN1:GluN3 1:3); test: Two-electrode voltage-clamp recordings of GluN1^FA,TL/GluN3A receptors in Xenopus oocytes; assay type: cell-based; conditions: read-out: hGluN1^FA,TL/hGluN3A (100 × Idrug/Icontrol at 30 μM drug)
Sequence (Q8TCU5 24-1115, other chains not shown): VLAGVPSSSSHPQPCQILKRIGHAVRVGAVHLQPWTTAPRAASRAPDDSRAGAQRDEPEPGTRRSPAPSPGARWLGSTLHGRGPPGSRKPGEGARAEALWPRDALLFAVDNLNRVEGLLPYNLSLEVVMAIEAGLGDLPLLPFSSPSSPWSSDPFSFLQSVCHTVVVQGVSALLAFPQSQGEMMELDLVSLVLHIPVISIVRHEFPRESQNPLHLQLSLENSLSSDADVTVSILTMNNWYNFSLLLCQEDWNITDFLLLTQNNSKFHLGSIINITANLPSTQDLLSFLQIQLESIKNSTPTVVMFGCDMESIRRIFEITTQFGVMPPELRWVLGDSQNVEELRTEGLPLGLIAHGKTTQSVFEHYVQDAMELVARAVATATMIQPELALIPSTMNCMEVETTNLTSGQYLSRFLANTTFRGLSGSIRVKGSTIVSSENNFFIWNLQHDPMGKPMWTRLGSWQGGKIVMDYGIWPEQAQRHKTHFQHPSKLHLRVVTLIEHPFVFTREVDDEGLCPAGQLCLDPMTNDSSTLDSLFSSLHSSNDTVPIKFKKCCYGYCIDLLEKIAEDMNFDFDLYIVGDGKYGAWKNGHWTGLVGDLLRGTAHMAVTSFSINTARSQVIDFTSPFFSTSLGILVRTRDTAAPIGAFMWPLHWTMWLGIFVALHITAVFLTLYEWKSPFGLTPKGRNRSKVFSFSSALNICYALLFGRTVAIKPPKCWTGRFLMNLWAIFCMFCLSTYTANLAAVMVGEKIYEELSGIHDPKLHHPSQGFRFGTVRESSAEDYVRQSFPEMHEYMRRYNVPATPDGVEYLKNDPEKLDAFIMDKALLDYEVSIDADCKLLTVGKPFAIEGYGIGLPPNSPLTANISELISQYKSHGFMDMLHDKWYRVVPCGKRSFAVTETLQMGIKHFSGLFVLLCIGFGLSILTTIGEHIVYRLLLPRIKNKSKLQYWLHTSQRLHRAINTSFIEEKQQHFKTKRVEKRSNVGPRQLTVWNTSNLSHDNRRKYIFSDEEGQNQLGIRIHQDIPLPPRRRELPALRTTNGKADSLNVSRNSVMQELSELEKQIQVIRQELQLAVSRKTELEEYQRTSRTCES
Listed here: items and their measured remaining activity at 30 µM.
endpoint: remaining activity at 30 µM

> print(dat)
                                   compound                     endpoint  endpointvalue
1  COc1cc(F)c(C(COc2cccc(C)n2)N2Cc3ccc(C(F)(F)F)cc3C2=O)c(F)c1 (centres unmarked)  remaining activity at 30 µM            81%
2  CCOc1ccc(OCC(c2ccc(OC(C)C)cc2)N2Cc3ccc(Br)cc3C2=O)cc1 (centres unmarked)  remaining activity at 30 µM            78%
3  COc1ccc(OCC(c2ccc(OC)cc2)N2Cc3cc(Br)ccc3C2=O)cc1 (centres unmarked)  remaining activity at 30 µM            90%
4  CCOc1ccc(OCC(c2ccc(OC(C)C)cc2)N2Cc3ccc(C(F)(F)F)cc3C2=O)cc1 (centres unmarked)  remaining activity at 30 µM            98%
5  COc1cc(F)c(C(COc2cccc(C)n2)N2Cc3ccccc3C2=O)c(F)c1 (centres unmarked)  remaining activity at 30 µM            70%
6  Cc1cccc(OCC(c2ccc(OC(C)C)cc2)N2Cc3cc(Cl)ccc3C2=O)n1 (centres unmarked)  remaining activity at 30 µM            94%
7  COc1cc(F)c(C(COc2cccc(C)n2)N2Cc3cc(Br)ccc3C2=O)c(F)c1 (centres unmarked)  remaining activity at 30 µM            79%
8  COc1ccc(OCC(c2ccc(OC)c(OC)c2)N2Cc3cc(Br)ccc3C2=O)cc1 (centres unmarked)  remaining activity at 30 µM           101%

Ref: patent US20230339854A1
